Assay Summary: protein stability index of a GFP-peptide fusion (yeast GPS) (PSI 1-4); higher = more stable; sorted into four equal gates, so the index is relative within each strain
Assay Context: ubr1∆
Measure: protein stability index
Numbers only.

Each sequence below has a reported value. Please supply its protein stability index.
1. ERQQDELENFLDNFETK [YJL041W/NSP1]
2. IPNLTAKPFQVTKEYFQ [FAS1]
3. LNFKDDKKYKGLTTVWL [REC8]
4. LLDAGCKVVAEMIRGRS [SKP1]
5. VRDTSPHGISVFLSNLV [BRR2]
6. GKGNTFEKVGSHLYKAR [RPN14]

-- reply
[3.38, 2.79, 2.69, 1.91, 2.34, 3.27]

Each sequence below has a reported value. Please supply its protein stability index.
1. NVSLIKIEGVATPQEAQ [RPL33B]
2. KGRKTNKYANNDFANNL [CSL4]
3. TLTKISMLFKTSQKMTS [MCD1]
4. EYLTLNDFNDLNIDWST [MED2]

-- reply
2.61
3.15
3.53
2.51

----------
Assay Summary: protein stability index of a GFP-peptide fusion (yeast GPS) (PSI 1-4); higher = more stable; sorted into four equal gates, so the index is relative within each strain
Assay Context: san1∆
Measure: protein stability index

In [3]: df
Out[3]:
                    sequence_record  result
0  EGDGAKAAISFGAKPEE [YJL041W/NSP1]    3.43
1        NRQAAASVVPSASSLVI [RPL12A]    1.98

Each sequence below has a reported value. Please supply its protein stability index.
1. GQGYRKVGIWPYFDYIF [YJL039C/NUP192]
2. RYLTLLSNEFTATNSKG [ECM29]
3. MENILQRCKSNAISLQL [YIL149C/MLP2]
4. NLYHVTEDGWIYHGNHD [PRE2]
5. GVKDCQEGLITTTMLQL [SSN2]
6. TGLCSFDYSVILNSIPA [YJL039C/NUP192]

-- reply
3.03
2.61
2.05
2.88
2.74
1.49

----------
Please respond with reported protein stability index for every item in the list.
Assay Summary: protein stability index of a GFP-peptide fusion (yeast GPS) (PSI 1-4); higher = more stable; sorted into four equal gates, so the index is relative within each strain
Assay Context: san1∆
Answers are plain numbers.

Consider the worked cases shown below.
>>> df
            sequence_record                  measure  measured_number
0  IVPSMTHLEIEPFTILG [RET1]  protein stability index             2.29
1  TTRVGGGGAARRQAVDV [RPS5]  protein stability index             1.73

Now, please, on to the next sequence.
-- ask Determine its reported protein stability index: SAEDQLYAITFRKGLGN [QCR2]
-- reply 2.96

----------
Assay Summary: protein stability index of a GFP-peptide fusion (yeast GPS) (PSI 1-4); higher = more stable; sorted into four equal gates, so the index is relative within each strain
Assay Context: pdr5∆
Please respond with reported protein stability index for every item in the list.
Answers are plain numbers.

Consider the worked cases shown below.
>>> print(df.to_string())
            sequence_record                  measure  measured_number
0  KENELLFGEKSILGKFC [YCS4]  protein stability index             1.72
1  FNKNLGKGPGCGFWQPA [PRP8]  protein stability index             3.25
2  ARKSAPSTGGVKKPHRY [HHT1]  protein stability index             1.87

Each sequence below has a reported value. Please supply its protein stability index.
1. KYLEQVLDHQRAIPFRR [RPL17A]
2. NDPEYMDTSDDAFVATA [DLS1]
3. QKNFMDQFQWILRKPGK [RRI2]
4. NVGLPILKSLKNRSNRK [YOR098C/NUP1]
5. VARIPRVGGGGTGRSGQ [RPL4A]
6. DSAAIIAATGLNQINGL [GRR1]
7. VDAITRCYQPFELFDNK [SNU114]

-- reply
1. 2.35
2. 3.49
3. 2.66
4. 3.1
5. 3.39
6. 2.83
7. 3.06

----------
Assay Summary: protein stability index of a GFP-peptide fusion (yeast GPS) (PSI 1-4); higher = more stable; sorted into four equal gates, so the index is relative within each strain
Assay Context: ubr1∆
// label = met if protein stability index is not less than 3, otherwise not met

Some solved entries appear below for comparison.
In [3]: df
Out[3]:
                     sequence_record  qualitative_label
0           QRRSWRQYVGQLAPSSV [DIS3]            not met
1           VASADYESQTFSSKNEW [PRP8]            not met
2           FSKIAEYYRIQKQLPQK [ESC2]                met
3  KSWLNRLNNWLFGWNDL [YMR153W/NUP53]            not met

-- ask Is the recorded value of protein stability index equal to or greater than 3 for this sequence? VPSFLRPDITMYCRPAP [GRR1]
-- reply not met

-- ask Is the recorded value of protein stability index equal to or greater than 3 for this sequence? YKHIDASGSINRKVLQA [RPS19A]
-- reply not met

-- ask Is the recorded value of protein stability index equal to or greater than 3 for this sequence? LGPLSYQNMAFITAKDK [YJR042W/NUP85]
-- reply not met

-- ask Is the recorded value of protein stability index equal to or greater than 3 for this sequence? SYVAVLGMGKAVEKTLA [POP7]
-- reply not met

-- ask Is the recorded value of protein stability index equal to or greater than 3 for this sequence? TTLKSVTIASEIYYDPD [RPO21]
-- reply not met

-- ask Is the recorded value of protein stability index equal to or greater than 3 for this sequence? LAMNDDDFLSKKRKAGR [SNF2]
-- reply met

-- ask Is the recorded value of protein stability index equal to or greater than 3 for this sequence? GGESAYFFQLQIRSADE [RPC11]
-- reply met

-- ask Is the recorded value of protein stability index equal to or greater than 3 for this sequence? MRILSNDITNLQLSKTP [SRB8]
-- reply not met

-- ask Is the recorded value of protein stability index equal to or greater than 3 for this sequence? VTRLFFICSIIQTVVIS [YML031W/NDC1]
-- reply not met

-- ask Is the recorded value of protein stability index equal to or greater than 3 for this sequence? YSNSHQMAVHIATDGGR [RET1]
-- reply not met

----------
Assay Summary: protein stability index of a GFP-peptide fusion (yeast GPS) (PSI 1-4); higher = more stable; sorted into four equal gates, so the index is relative within each strain
Assay Context: ubr1∆
// label = yes if protein stability index is not less than 3, otherwise no

Some solved entries appear below for comparison.
>>> df
                      sequence_record  qualitative_label
0  ALIFIFFAYFIGWCKED [YJL039C/NUP192]                 no
1            SFLDRKRAKEFITTLLK [SIN4]                 no
2  TGLCSFDYSVILNSIPA [YJL039C/NUP192]                 no

-- ask Is the recorded value of protein stability index equal to or greater than 3 for this sequence? KVFSLDPQYLVDDLRPE [ASC1]
-- reply yes

-- ask Is the recorded value of protein stability index equal to or greater than 3 for this sequence? SKMGAPWCVKPEYLAMY [ITC1]
-- reply yes

----------
Please respond with reported protein stability index for every item in the list.
Assay Summary: protein stability index of a GFP-peptide fusion (yeast GPS) (PSI 1-4); higher = more stable; sorted into four equal gates, so the index is relative within each strain
Assay Context: pdr5∆
Give bare numbers.

Consider the worked cases shown below.
                      sequence_record  measured_number
0  TGLCSFDYSVILNSIPA [YJL039C/NUP192]             1.51
1          KCSATNRIIKADDHASV [RPS21A]             2.96
2   ISICMILCGIQEYLNPV [YDL116W/NUP84]             1.61

Each sequence below has a reported value. Please supply its protein stability index.
1. MPRAPRTYSKTYSTPKR [RPS9A]
2. KGRKTNKYANNDFANNL [CSL4]
3. QFTRFFLLVPSKQVQVS [ECM29]
4. RKQIQLLKKIIFEKELM [SRB4]

-- reply
1: 2.45; 2: 3.14; 3: 1.18; 4: 2.14

Each sequence below has a reported value. Please supply its protein stability index.
1. TKLYFDVNEKIRFRIER [RPC25]
2. LLPANLLSLNSVRSLQK [SRP68]
3. VRAVNTGMEPGKTSFFQ [RPP0]

-- reply
1. 2.92
2. 2.48
3. 2.78

Each sequence below has a reported value. Please supply its protein stability index.
1. KTSNIESVPIYSIDEFF [BRR2]
2. EFDRRILKKSLMTSHTK [RTT102]
3. DDDDYNAEKYFNNGDDD [RPC31]
4. SSVMSSPRVEKRSFSST [YOR098C/NUP1]
5. SPQAVSSFVRQELAKSI [PRE1]
6. LVEAAKLLKIPKFISEA [YDL116W/NUP84]
7. YAIIINYTKDNEYYPMC [YCS4]
8. SAGLFGSKPAGGTSLFG [YGL172W/NUP49]

-- reply
2.58
2.98
3.13
2.23
2.33
2.61
1.44
2.9

-- ask Determine its reported protein stability index: RRFKNGFQTGSASKASA [RPL37A]
-- reply 2.98
